Listed here: items and their measured IC50.
# System: phospho-ERK in MIA PaCa2 or H358 cells
# assay.summary: Phospho-ERK assay (AlphaLisa)
# Format: cell-based
# reported.conditions: 1.5 h, MIA PaCa2 or H358 cells, compound incubated 1.5 hours; read-out: IC50 (p-ERK)

// solved cases for IC50 follow
>>> observed_result("Cn1c(N2CCN(CCCN)CC2)nc(N)c(Sc2cccc(Cl)c2Cl)c1=O")
"> 1500 nM"
>>> observed_result("C[C@@H]1OCC2(CCN(c3cnc(Sc4ccc5c(c4Cl)C(=O)N(Cc4ccccc4)C5)cn3)CC2)[C@@H]1N")
"45 to 1500 nM"
>>> observed_result("Cn1c(N2CCC(C)(N)CC2)nc(N)c(Sc2ccc3nc[nH]c(=O)c3c2Cl)c1=O")
"> 1500 nM"

Return reported IC50. Input compound: C[C@@H]1OCC2(CCN(c3cnc(Sc4ccc5ncn(Cc6cccc(O)c6)c(=O)c5c4Cl)cn3)CC2)[C@@H]1N
< 45 nM

###

# target.under.test: SHP2 (full length) (Homo sapiens, UniProt Q06124)
# Construct: SHP2 (full length, diluted to 100 pM final concentration in reaction buffer, BPS bioscience, US); purchased BPS bioscience, US
# Sequence (Q06124 whole entry): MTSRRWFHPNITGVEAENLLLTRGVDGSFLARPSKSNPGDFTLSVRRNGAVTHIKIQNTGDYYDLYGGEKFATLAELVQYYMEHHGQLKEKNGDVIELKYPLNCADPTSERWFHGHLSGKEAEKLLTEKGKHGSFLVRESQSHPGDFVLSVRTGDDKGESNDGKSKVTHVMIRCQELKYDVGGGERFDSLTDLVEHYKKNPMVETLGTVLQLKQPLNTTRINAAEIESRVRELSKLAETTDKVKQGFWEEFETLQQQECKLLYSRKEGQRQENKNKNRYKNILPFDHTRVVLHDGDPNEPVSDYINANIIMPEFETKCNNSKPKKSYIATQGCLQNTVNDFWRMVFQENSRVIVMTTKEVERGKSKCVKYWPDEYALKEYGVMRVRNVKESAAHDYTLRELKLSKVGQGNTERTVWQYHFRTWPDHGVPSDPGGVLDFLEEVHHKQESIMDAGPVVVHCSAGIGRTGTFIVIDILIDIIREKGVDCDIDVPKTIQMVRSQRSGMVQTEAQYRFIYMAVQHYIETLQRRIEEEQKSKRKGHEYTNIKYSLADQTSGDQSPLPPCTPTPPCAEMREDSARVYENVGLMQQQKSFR
# assay.summary: Phosphatase assay (PTPase assay) with DiFMUP substrate
# Format: biochemical
# reported.conditions: SHP2 activated with SHP2 activating peptide; DiFMUP 80 μM, 2 hours; fluorescence; read-out: IC50 (PTPase aS say)
pIC50: −log10 of the molar value.
Catalogue of compounds with associated pIC50

>>> observed_result("CC(C)(O)Cn1cnc2ccc(Sc3cnc(N4CCC5(CC4)Cc4ncsc4[C@@H]5N)cn3)c(Cl)c2c1=O")
"7.00 to 8.52"
>>> observed_result("CC(c1ccccc1)n1cnc2ccc(Sc3cnc(N4CCC5(CC4)CO[C@@H](C)[C@H]5N)cn3)c(Cl)c2c1=O (some centres unmarked)")
"> 8.52"

Answer with the recorded pIC50 of C[C@@H]1OCC2(CCN(c3cnc(Sc4ccc5ncn(CC(N)=O)c(=O)c5c4Cl)cn3)CC2)[C@@H]1N only.
> 8.52

Give a short answer stating reported pIC50 for N[C@@H]1c2cccnc2CC12CCN(c1cnc(Sc3ccc4ncn(CC5CCOC5)c(=O)c4c3Cl)cn1)CC2 (some centres unmarked) .
> 8.52

Please report pIC50 for the following compound: CC(=O)Cn1cnc2ccc(Sc3cnc(N4CCC5(CC4)CO[C@@H](C)[C@H]5N)cn3)c(Cl)c2c1=O
> 8.52

###

# target.under.test: SHP2 (full length) (Homo sapiens)
# Construct: SHP2 (full length, diluted to 100 pM final concentration in reaction buffer, BPS bioscience, US); purchased BPS bioscience, US
# assay.summary: Phosphatase assay (PTPase assay) with DiFMUP substrate
# Assay type: biochemical
# reported.conditions: SHP2 activated with SHP2 activating peptide; DiFMUP 80 μM, 2 hours; fluorescence; read-out: IC50 (PTPase aS say)
pIC50: −log10 of the molar value.
measurement.label: pIC50

The cases that follow already have their pIC50 on record.
>>> observed_result("C[C@@H]1OCC2(CCN(c3cnc(Sc4ccc5ncn(Cc6cnccn6)c(=O)c5c4Cl)cn3)CC2)[C@@H]1N [Example 44]")
"> 8.52"
>>> observed_result("C[C@@H]1OCC2(CCN(c3cnc(Sc4ccc5ncn(CC6CCCN6)c(=O)c5c4Cl)cn3)CC2)[C@@H]1N (stereo partly shown) [Example 54]")
"7.00 to 8.52"

Give the reported pIC50 for this molecule. CC1(N)CCN(c2cnc(Sc3ccc4nc[nH]c(=O)c4c3Cl)cn2)CC1 [Example 4]
7.00 to 8.52

Quick one: give measured pIC50 for Cn1c(N2CCN(CC(N)CCc3ccccc3)CC2)nc(N)c(Sc2cccc(Cl)c2Cl)c1=O (stereo not shown) [Example 189]
< 7.00

Supply reported pIC50 belonging to this molecule: C[C@@H]1OCC2(CCN(c3cnc(Sc4ccc5ncn(CCOC(F)(F)F)c(=O)c5c4Cl)cn3)CC2)[C@@H]1N [Example 96]
7.00 to 8.52

Provide measured pIC50 value, entry: C[C@@H]1OCC2(CCN(c3cnc(Sc4cccc(S(N)(=O)=O)c4Cl)c(N)n3)CC2)[C@@H]1N [Example 12]
7.00 to 8.52

Report pIC50, nothing else, for this molecule: C[C@@H]1OCC2(CCN(c3cnc(Sc4ccc5c(c4Cl)S(=O)(=O)N(Cc4ccccc4)C=N5)cn3)CC2)[C@@H]1N [Example 124]
> 8.52

For the molecule C[C@@H]1OCC2(CCN(c3cnc(Sc4ccc5ncn(Cc6ccccc6)c(=O)c5c4Cl)cn3)CC2)[C@@H]1N [Example 18] , report pIC50.
> 8.52

Specify measured pIC50 for C[C@@H]1OCC2(CCN(c3cnc(Sc4ccc5ncn(CC(O)CO)c(=O)c5c4Cl)cn3)CC2)[C@@H]1N (stereo partly shown) [Example 122] .
> 8.52

Give pIC50 for C[C@@H]1OCC2(CCN(c3cnc(Sc4ccc5ncn(CC(=O)N6CCCCC6)c(=O)c5c4Cl)cn3)CC2)[C@@H]1N [Example 95]
> 8.52

Annotate the molecule CC(O)CCn1cnc2ccc(Sc3cnc(N4CCC5(CC4)Cc4ncccc4[C@H]5N)cn3)c(Cl)c2c1=O (stereo partly shown) [Example 111] with its measured pIC50.
> 8.52

Hello, please tell me recorded pIC50 for this one: COCCOc1nc2ccc(Sc3cnc(N4CCC5(CC4)CO[C@@H](C)[C@H]5N)cn3)c(Cl)c2[nH]1 [Example 127]
> 8.52

Give pIC50 for the following molecule: C[C@@H]1OCC2(CCN(c3cnc(Sc4ccc5nc[nH]c(=O)c5c4Cl)cn3)CC2)[C@@H]1N [Example 5]
7.00 to 8.52

Dear colleague, please send me the reported pIC50 for N[C@@H]1c2cccnc2CC12CCN(c1cnc(Sc3ccc4ncn(CCCF)c(=O)c4c3Cl)cn1)CC2 [Example 110] when you can.
> 8.52

Consider the molecule Cc1nc2ccc(Sc3cnc(N4CCC(C)(CN)CC4)cn3)c(Cl)c2c(=O)[nH]1 [Example 22] . State its measured pIC50.
7.00 to 8.52

Supply measured pIC50 of C[C@@H]1OCC2(CCN(c3cnc(Sc4ccc5ncn(Cc6nc7ccccc7[nH]6)c(=O)c5c4Cl)cn3)CC2)[C@@H]1N [Example 37] in your reply.
> 8.52

Let me know recorded pIC50 for Cn1c(N2CCC(C)(N)CC2)nc(N)c(Sc2ccc3nc[nH]c(=O)c3c2Cl)c1=O [Example 29] , thanks.
< 7.00

Tell me its pIC50 given C[C@@H]1OCC2(CCN(c3cnc(Sc4ccc5nn(C)cc5c4Cl)cn3)CC2)[C@@H]1N [Example 26] as the entry.
> 8.52

State its pIC50: CC1(CN)CCN(c2cnc(Sc3ccc4nc[nH]c(=O)c4c3Cl)cn2)CC1 [Example 3]
7.00 to 8.52

Answer with the recorded pIC50 of C[C@@H]1OCC2(CCN(c3cnc(Sc4ccc5ncn(CCN6CCOC6=O)c(=O)c5c4Cl)cn3)CC2)[C@@H]1N [Example 114] only.
> 8.52

Determine its reported pIC50: N[C@@H]1c2cccnc2CC12CCN(c1cnc(Sc3ccc4ncn(Cc5cccnc5)c(=O)c4c3Cl)cn1)CC2 [Example 105]
> 8.52

Specify pIC50 for C[C@@H]1OCC2(CCN(c3cnc(Sc4ccc5ncn(CC6(O)CCOCC6)c(=O)c5c4Cl)cn3)CC2)[C@@H]1N [Example 83] and stop.
> 8.52

Respond only with pIC50 recorded for COCCn1cnc2ccc(Sc3nc(CO)c(N4CCC5(CC4)CO[C@@H](C)[C@H]5N)nc3C)c(Cl)c2c1=O [Example 131]
7.00 to 8.52

Give pIC50 for Cn1c(N2CCN(CC(N)c3ccccc3)CC2)nc(N)c(Sc2cccc(Cl)c2Cl)c1=O (stereo not shown) [Example 190]
< 7.00

###

# Tested on: phospho-ERK in MIA PaCa2 or H358 cells
# assay.summary: Phospho-ERK assay (AlphaLisa)
# Type: cell-based
# reported.conditions: 1.5 h, MIA PaCa2 or H358 cells, compound incubated 1.5 hours; read-out: IC50 (p-ERK)
measurement.label: IC50

>>> observed_result("C[C@@H]1OCC2(CCN(c3cnc(Sc4ccc5ncn(CC6CNC(=O)O6)c(=O)c5c4Cl)cn3)CC2)[C@@H]1N (stereo partly shown)")
"< 45 nM"
>>> observed_result("CC(C)(O)Cn1cnc2ccc(Sc3ncc(N4CCC5(CC4)Cc4ncsc4[C@H]5N)nc3N)c(Cl)c2c1=O")
"< 45 nM"
>>> observed_result("C[C@@H]1OCC2(CCN(c3cnc(Sc4ccc5ncn(CC6CCCN6C)c(=O)c5c4Cl)cn3)CC2)[C@@H]1N (stereo partly shown)")
"45 to 1500 nM"
>>> observed_result("Cn1c(N2CCN(CCN)CC2)nc(N)c(-c2cccc(Cl)c2Cl)c1=O")
"> 1500 nM"
>>> observed_result("C[C@@H]1OCC2(CCN(c3cnc(Sc4ccc5c(=O)n(Cc6ccccc6)cnc5c4Cl)cn3)CC2)[C@@H]1N")
"< 45 nM"

Provide measured IC50 value, entry: C[C@@H]1OCC2(CCN(c3cnc(Sc4ccc5nn(C)cc5c4Cl)cn3)CC2)[C@@H]1N
< 45 nM

Write down IC50 measured for item COC(C)Cn1cnc2ccc(Sc3cnc(N4CCC5(CC4)Cc4ncccc4[C@H]5N)cn3)c(Cl)c2c1=O (stereo partly shown)
< 45 nM
